Quick list: IA per entry.
Test system: Cell line
Assay: Percentage of alpha-MSH stimulated cAMP level at 10 uM
Format: functional, Homo sapiens

Consider the reported IA for these compounds:
1) O=C(CCc1ccc(Cl)cc1)N1CCN(c2ccccc2CNCCc2cccs2)CC1 : <45%
2) NCC(Cc1ccc(Cl)cc1)C(=O)N1CCN(c2ccccc2CNCCc2cccs2)CC1 (stereo not drawn) : <45%

stdin: Supply IA value. Item: NC(CC(=O)N1CCN(c2ccccc2CNCCc2cccs2)CC1)c1ccc(Cl)cc1 (stereo not drawn)
stdout: <45%

* * *

Quick reference for pKi among some molecules
Molecular target: Melanocortin receptor 4 (Homo sapiens, UniProt P32245)
Sequence (P32245 whole entry): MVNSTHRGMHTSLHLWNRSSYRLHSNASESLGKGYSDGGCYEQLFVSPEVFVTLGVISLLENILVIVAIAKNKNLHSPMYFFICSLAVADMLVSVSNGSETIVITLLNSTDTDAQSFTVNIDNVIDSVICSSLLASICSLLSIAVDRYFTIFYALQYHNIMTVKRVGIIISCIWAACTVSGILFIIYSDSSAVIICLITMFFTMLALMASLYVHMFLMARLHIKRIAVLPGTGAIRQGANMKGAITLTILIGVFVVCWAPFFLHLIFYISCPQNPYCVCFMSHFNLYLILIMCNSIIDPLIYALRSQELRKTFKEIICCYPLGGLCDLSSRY
Test: Binding affinity towards human melanocortin 4 receptor expressed in HEK 293 cells was determined by using [125I]NDP-MSH as radioligand
Assay type: cell-based, HEK293
A value of pKi is the negative decimal logarithm of a concentration given in moles per litre.

1) CCC(NCCc1cccs1)c1ccccc1N1CCN(C(=O)[C@@H](Cc2ccc(Cl)cc2)NC(=O)CCN)CC1 (stereo not given in full) : 6.85
2) NC(C(=O)N1CCN(c2ccccc2CNCCc2cccs2)CC1)c1ccc(Cl)cc1 (stereo not given) : 5.74
3) CC(Nc1ccccc1N)c1ccccc1N1CCN(C(=O)[C@@H](Cc2ccc(Cl)cc2)NC(=O)CCN)CC1 (stereo not given in full) : 6.33
4) CN(C)CC(=O)N[C@H](Cc1ccc(Cl)cc1)C(=O)N1CCN(c2ccccc2CNCCc2cccs2)CC1 : 7.42
5) CC(C)CC(N)C(=O)N[C@H](Cc1ccc(Cl)cc1)C(=O)N1CCN(c2ccccc2CNCCc2cccs2)CC1 (stereo not given in full) : 7.52
6) CC(NCCc1cccs1)c1ccccc1N1CCN(C(=O)[C@@H](Cc2ccc(Cl)cc2)NC(=O)CCN)CC1 (stereo not given in full) : 6.96
7) CC(N[C@@H]1CCCC[C@H]1N)c1ccccc1N1CCN(C(=O)[C@@H](Cc2ccc(Cl)cc2)NC(=O)CCN)CC1 (stereo not given in full) : 6.82
8) CC(C)(N)C(=O)N[C@H](Cc1ccc(Cl)cc1)C(=O)N1CCN(c2ccccc2CNCCc2cccs2)CC1 : 7.18

Now for another entry.
stdin: Name the recorded pKi of CN(CCc1cccs1)Cc1ccccc1N1CCN(C(=O)[C@@H](Cc2ccc(Cl)cc2)NC(=O)CCN)CC1 , assay system Melanocortin receptor 4 (Homo sapiens, UniProt P32245).
stdout: 6.66

* * *

Molecular target: Melanocortin receptor 4 (Homo sapiens, UniProt P32245)
Assay: Binding affinity towards human melanocortin 4 receptor expressed in HEK 293 cells was determined by using [125I]NDP-MSH as radioligand
Assay type: cell-based, HEK293
Form field: pKi (one value per entry).
Scale note: pKi = -log10(concentration in M).

Take a look at these entries with their results.
1) CC(c1ccccc1N1CCN(C(=O)[C@@H](Cc2ccc(Cl)cc2)NC(=O)CCN)CC1)N1CCN(c2ccccc2)CC1 (stereo partly specified) : 6.37
2) CC(NCc1ccccc1N)c1ccccc1N1CCN(C(=O)[C@@H](Cc2ccc(Cl)cc2)NC(=O)CCN)CC1 (stereo partly specified) : 6.92
3) O=C(CC1CCCN1)N[C@H](Cc1ccc(Cl)cc1)C(=O)N1CCN(c2ccccc2CNCCc2cccs2)CC1 (stereo partly specified) : 7.40

Turning now to a further compound:
stdin: Return pKi for the following compound: O=C(N[C@H](Cc1ccc(Cl)cc1)C(=O)N1CCN(c2ccccc2CNCCc2cccs2)CC1)C1CCN1 (stereo partly specified)
stdout: 7.32
